target: estrogen receptor (ERα) in CAMA-1 cells (Homo sapiens (Human), UniProt P03372); assay: Western blotting assay, ER down-regulation in CAMA-1; format: cell-based; conditions: CAMA-1, 100 nM compound, 48 h, vs 100 nM fulvestrant
Sequence (P03372 whole entry): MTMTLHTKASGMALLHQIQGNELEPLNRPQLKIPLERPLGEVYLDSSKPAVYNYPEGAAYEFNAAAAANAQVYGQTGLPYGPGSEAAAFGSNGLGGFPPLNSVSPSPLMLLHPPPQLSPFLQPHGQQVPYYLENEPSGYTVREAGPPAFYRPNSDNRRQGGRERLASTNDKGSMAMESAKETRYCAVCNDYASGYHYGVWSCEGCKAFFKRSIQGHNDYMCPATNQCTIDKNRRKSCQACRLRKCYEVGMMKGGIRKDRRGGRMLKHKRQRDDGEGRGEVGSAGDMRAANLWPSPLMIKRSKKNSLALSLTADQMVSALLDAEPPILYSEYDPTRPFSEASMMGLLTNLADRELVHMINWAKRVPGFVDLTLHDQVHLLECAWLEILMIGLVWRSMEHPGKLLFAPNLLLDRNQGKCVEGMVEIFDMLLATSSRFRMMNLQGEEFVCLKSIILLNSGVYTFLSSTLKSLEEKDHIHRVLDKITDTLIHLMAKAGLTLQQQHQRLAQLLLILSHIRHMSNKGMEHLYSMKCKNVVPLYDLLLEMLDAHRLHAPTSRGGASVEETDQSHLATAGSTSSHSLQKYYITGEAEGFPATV
Let's look at some compounds and their measured CAMA1 Western % ER deg vs Fv.
Dear colleague, please send the value followed by its unit.

{"columns": ["Compound", "Observed measurement"],
 "data": [
  ["C[C@@H]1Cc2c([nH]c3ccccc23)[C@@H](c2c(F)cnc(OCCNCCCF)c2F)N1CC(F)(F)F [Example 107]", "98%"]
]}

Observed CAMA1 Western % ER deg vs Fv on estrogen receptor (ERα) in CAMA-1 cells (Homo sapiens (Human), UniProt P03372) for C[C@@H]1Cc2c([nH]c3ccccc23)[C@@H](c2cc(OCCNCCCF)ccc2Cl)N1CC(F)(F)F [Example 22] , please.
96%

Param readout = CAMA1 Western % ER deg vs Fv; param system = estrogen receptor (ERα) in CAMA-1 cells (Homo sapiens (Human), UniProt P03372); param query = Cc1c(OCCNCCCF)ncc(F)c1[C@@H]1c2[nH]c3ccccc3c2C[C@@H](C)N1CC(F)(F)CO [Example 110] ; response: value
83%

For estrogen receptor (ERα) in CAMA-1 cells (Homo sapiens (Human), UniProt P03372), provide CAMA1 Western % ER deg vs Fv of C[C@@H]1Cc2c([nH]c3cccc(F)c23)[C@@H](c2c(F)ccc(OCCNCCCF)c2F)N1CC(F)(F)CO [Example 62] please.
96%

Notebook entry, estrogen receptor (ERα) in CAMA-1 cells (Homo sapiens (Human), UniProt P03372) assay: CAMA1 Western % ER deg vs Fv of C[C@@H]1Cc2c([nH]c3ccccc23)[C@@H](c2cccc(OCCNCCCF)c2)N1CC1(F)COC1 [Example 1] = ?
66%

For the record COc1ccc(OCCNCCCF)cc1[C@@H]1c2[nH]c3ccccc3c2C[C@@H](C)N1CC(F)(F)CO [Example 8] , what value of CAMA1 Western % ER deg vs Fv is listed for estrogen receptor (ERα) in CAMA-1 cells (Homo sapiens (Human), UniProt P03372)?
93%

Request - read-out CAMA1 Western % ER deg vs Fv | tested on estrogen receptor (ERα) in CAMA-1 cells (Homo sapiens (Human), UniProt P03372) | compound Cc1ccc2[nH]c3c(c2c1)C[C@@H](C)N(CC(F)(F)CO)[C@@H]3c1c(F)ccc(OCCNCCCF)c1F [Example 63]
85%

So what CAMA1 Western % ER deg vs Fv did Cc1c(OCCNCCCF)ccc(F)c1[C@@H]1c2[nH]c3ccccc3c2C[C@@H](C)N1C[C@H](C)C(=O)O [Example 55] get with estrogen receptor (ERα) in CAMA-1 cells (Homo sapiens (Human), UniProt P03372)?
94%

I'm curious: which CAMA1 Western % ER deg vs Fv was measured for Cc1c(OCCNCCCF)ccc(F)c1[C@@H]1c2[nH]c3ccccc3c2C[C@@H](C(F)F)N1C[C@H](C)C(=O)O [Example 137] tested on estrogen receptor (ERα) in CAMA-1 cells (Homo sapiens (Human), UniProt P03372)?
95%

Query CAMA1 Western % ER deg vs Fv on estrogen receptor (ERα) in CAMA-1 cells (Homo sapiens (Human), UniProt P03372) for C[C@@H]1Cc2c([nH]c3ccccc23)[C@@H](c2c(F)ccc(NCCNCCCF)c2F)N1CC(F)(F)F [Example 88]
93%

Request: CAMA1 Western % ER deg vs Fv, test system estrogen receptor (ERα) in CAMA-1 cells (Homo sapiens (Human), UniProt P03372), entry COc1ccc(OCCNCCCF)cc1[C@@H]1c2[nH]c3ccccc3c2C[C@@H](C)N1CC(F)F [Example 6]
81%

// lookup CAMA1 Western % ER deg vs Fv | system=estrogen receptor (ERα) in CAMA-1 cells (Homo sapiens (Human), UniProt P03372) | key= COc1cnc(OCCNCCCF)cc1[C@@H]1c2[nH]c3ccccc3c2C[C@@H](C)N1CC(F)(F)F [Example 12]
89%

What value of CAMA1 Western % ER deg vs Fv on estrogen receptor (ERα) in CAMA-1 cells (Homo sapiens (Human), UniProt P03372) does C[C@@H]1Cc2c([nH]c3ccccc23)[C@@H](c2c(F)ccc(OCCNCCCF)c2F)N1CC(F)(F)F [Example 9] have?
101%

Query for estrogen receptor (ERα) in CAMA-1 cells (Homo sapiens (Human), UniProt P03372): what CAMA1 Western % ER deg vs Fv does the record show for C[C@@H]1Cc2c([nH]c3ccc(F)cc23)[C@@H](c2c(F)cnc(OCCNCCCF)c2F)N1CC(F)(F)CO [Example 65] ?
97%

Checklist item: CAMA1 Western % ER deg vs Fv tested on estrogen receptor (ERα) in CAMA-1 cells (Homo sapiens (Human), UniProt P03372), entry C[C@@H]1Cc2c([nH]c3ccccc23)[C@@H](c2c(F)cnc(OCCNCCCF)c2F)N1CC(F)(F)CO [Example 64] , value?
98%

Please state recorded CAMA1 Western % ER deg vs Fv (tested on estrogen receptor (ERα) in CAMA-1 cells (Homo sapiens (Human), UniProt P03372)) of C[C@@H]1Cc2c([nH]c3ccccc23)[C@@H](c2c(F)ccc(OCCNCCCF)c2F)N1CC1(F)CC1 [Example 76]
85%

Lab request: please report CAMA1 Western % ER deg vs Fv under test system estrogen receptor (ERα) in CAMA-1 cells (Homo sapiens (Human), UniProt P03372) for C[C@@H](CN1[C@H](c2c(F)cnc(OCCNCCCF)c2Cl)c2[nH]c3ccccc3c2C[C@H]1C(F)(F)F)C(=O)O [Example 142]
80%

Request body: readout CAMA1 Western % ER deg vs Fv, system estrogen receptor (ERα) in CAMA-1 cells (Homo sapiens (Human), UniProt P03372), query COc1ccc(NCCNCCCF)c(F)c1[C@@H]1c2[nH]c3ccccc3c2C[C@@H](C)N1CC(F)(F)F [Example 90] . Return the value.
93%

Lab note: need CAMA1 Western % ER deg vs Fv for Cc1c(OCCNCCCF)ccnc1[C@@H]1c2[nH]c3ccccc3c2C[C@@H](C)N1CC(F)(F)CO [Example 96] on estrogen receptor (ERα) in CAMA-1 cells (Homo sapiens (Human), UniProt P03372), anyone have it?
100%

Lookup: CAMA1 Western % ER deg vs Fv / estrogen receptor (ERα) in CAMA-1 cells (Homo sapiens (Human), UniProt P03372) / C[C@@H]1Cc2c([nH]c3ccccc23)[C@@H](c2c(F)ccc(OCCNCCCF)c2F)N1C[C@H](C)C(=O)O [Example 58]
83%

Field: CAMA1 Western % ER deg vs Fv (estrogen receptor (ERα) in CAMA-1 cells (Homo sapiens (Human), UniProt P03372)). Entry: C[C@@H]1Cc2c([nH]c3ccccc23)[C@@H](c2cc(OCCNCCCF)ccc2Cl)N1CC(F)(F)CO [Example 44]
94%

Query the reported CAMA1 Western % ER deg vs Fv for estrogen receptor (ERα) in CAMA-1 cells (Homo sapiens (Human), UniProt P03372); item: Cc1c(OCCNCCC(F)F)ccc(F)c1[C@@H]1c2[nH]c3ccccc3c2C[C@@H](C)N1C[C@@H](C)C(=O)O [Example 123]
90%

Give CAMA1 Western % ER deg vs Fv (estrogen receptor (ERα) in CAMA-1 cells (Homo sapiens (Human), UniProt P03372)) of the following compound: Cc1c(OCCNCCCF)cccc1[C@@H]1c2[nH]c3ccccc3c2C[C@@H](C)N1CC(F)(F)F [Example 20]
91%

###

Known solubility at 24 h of a selection of compounds
experiment: Thermodynamic solubility (shake-flask); type: physicochemical; settings: aqueous phosphate buffer, 25 °C, pH 7.4, aqueous buffer, thermodynamic from solid, phosphate buffer pH 7.4, 24 hours
Just the number please, in µM, no unit attached.

Would you please look over these solved cases?
{"columns": ["Structure smiles", "Readout unit", "Observed measurement"],
 "data": [
  ["C[C@@H]1Cc2c([nH]c3ccccc23)[C@@H](c2c(F)ccc(OCCN(C)CCCF)c2F)N1CC1(F)COC1", "µM", 49],
  ["COc1ccc(OCCNCCCF)c(C)c1[C@@H]1c2[nH]c3ccccc3c2C[C@@H](C)N1CC(F)(F)F", "µM", 8],
  ["C[C@@H]1Cc2c([nH]c3ccc(F)cc23)[C@@H](c2c(F)ccc(NCCNCCCF)c2F)N1CC(F)(F)CO", "µM", 670],
  ["Cc1c(OCCNCCCF)cccc1[C@@H]1c2[nH]c3ccccc3c2C[C@@H](C)N1CC(F)(F)F", "µM", 11],
  ["C[C@@H]1Cc2c([nH]c3ccccc23)[C@@H](c2c(F)cnc(OCCNCCCF)c2F)N1CC1(F)CC1", "µM", 375]
]}

Which solubility at 24 h is reported for this compound? C[C@@H]1Cc2c([nH]c3ccccc23)[C@@H](c2ccnc(OCCNCCCF)c2)N1CC(F)(F)F
251

So what does the record say about solubility at 24 h for COc1nnc(OCCNCCCF)cc1[C@@H]1c2[nH]c3ccccc3c2C[C@@H](C)N1CC(F)(F)F ?
92

Which measured solubility at 24 h value corresponds to C[C@@H]1Cc2c([nH]c3ccc(F)cc23)[C@@H](c2c(F)cnc(OCCN(C)CCCF)c2F)N1CC(F)(F)CO ?
80.6

Query: solubility at 24 h; subject: Cc1c([C@@H]2c3[nH]c4ccccc4c3C[C@@H](C)N2CC(F)(F)F)ccnc1OCCNCCCF
264
